target: recombinant full-length (fl)Tau (human Tau 2N4R) aggregates (Homo sapiens, UniProt P10636); construct: 35 μM of recombinant full-length (fl)Tau in PBS were aggregated; assay: Full-length Tau (flTau) disaggregation assay by Thioflavin T (ThT); conditions: 2 μM flTau aggregates, 30 minutes at RT, ThT fluorescence
Sequence (P10636 1-441 isoform P10636-8): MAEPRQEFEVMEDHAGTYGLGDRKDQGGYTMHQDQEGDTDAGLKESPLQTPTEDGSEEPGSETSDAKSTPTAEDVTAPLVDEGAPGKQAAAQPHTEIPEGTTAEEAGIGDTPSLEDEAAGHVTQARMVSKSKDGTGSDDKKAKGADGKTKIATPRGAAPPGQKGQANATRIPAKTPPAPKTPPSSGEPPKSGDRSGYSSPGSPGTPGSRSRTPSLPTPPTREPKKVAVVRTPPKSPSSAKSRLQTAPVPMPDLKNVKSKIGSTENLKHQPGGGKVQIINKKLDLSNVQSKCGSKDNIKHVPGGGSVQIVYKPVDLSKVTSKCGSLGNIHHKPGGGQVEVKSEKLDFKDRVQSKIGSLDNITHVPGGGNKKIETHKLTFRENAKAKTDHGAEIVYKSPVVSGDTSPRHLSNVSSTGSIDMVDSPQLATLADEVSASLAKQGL
Measured Metric: EC50

Record excerpt, results attached:
>  <Smiles Code>
COc1ccc2[nH]c3c(c2c1)CN(c1ccc2sc(N4CCOCC4)nc2c1)CC3

>  <Measured Metric>
EC50

>  <Meas Value>
25 to 50 µM

$$$$
>  <Smiles Code>
COc1ccc2c(c1)c1c(n2C)CCN(c2ccc3nc(N(C)C)oc3c2)C1

>  <Measured Metric>
EC50

>  <Meas Value>
< 10 µM

$$$$
>  <Smiles Code>
COc1ccc2[nH]c3c(c2c1)CN(c1ccc2sc(N(C)C)nc2c1)CC3

>  <Measured Metric>
EC50

>  <Meas Value>
< 10 µM

$$$$
>  <Smiles Code>
Cn1c2c(c3ccc(F)cc31)CN(c1ccc3oc(N4CCOCC4)nc3c1)CC2

>  <Measured Metric>
EC50

>  <Meas Value>
< 10 µM

$$$$

# evaluate next
IN: Tell us which EC50 value is on record for `CN(C)c1nc2ccc(N3CCc4[nH]c5cc(F)ccc5c4C3)cc2o1`
OUT: < 10 µM

* * *

molecular target: recombinant full-length (fl)Tau (human Tau 2N4R) aggregates (Homo sapiens); construct: 35 μM of recombinant full-length (fl)Tau in PBS were aggregated; experiment: Full-length Tau (flTau) disaggregation assay by Thioflavin T (ThT); conditions: 2 μM flTau aggregates, 30 minutes at RT, ThT fluorescence
pEC50: −log10 of the molar value.
Measured Metric: pEC50

>  <Compound>
Cn1c2c(c3cc(F)cnc31)CN(c1ccc3oc(N4CCOCC4)nc3c1)CC2 [Example 36]

>  <pEC50>
> 5.00

$$$$
>  <Compound>
CN(C)c1nc2ccc(N3CCc4[nH]c5cc(F)ccc5c4C3)cc2s1 [Example 54]

>  <pEC50>
> 5.00

$$$$
>  <Compound>
Fc1ccc2[nH]c3c(c2c1)CN(c1ccc2sc(N4CCOCC4)nc2c1)CC3 [Example 9]

>  <pEC50>
> 5.00

$$$$
>  <Compound>
COc1ccc2c(c1)c1c(n2C)CCN(c2ccc3nc(N(C)C)sc3c2)C1 [Example 31]

>  <pEC50>
> 5.00

$$$$

The following compounds each have a reported value; give each one's pEC50.
1. Fc1ccc2c3c([nH]c2c1)CCN(c1ccc2nc(N4CCOCC4)oc2c1)C3 [Example 44]
2. CC(C)Nc1nc2cc(N3CCc4c(c5cc(F)ccc5n4C)C3)ccc2s1 [Example 25]

OUT:
1. 4.60 to 5.00
2. > 5.00

Hello, I would appreciate it if you could give pEC50 for each entry below.
1. Fc1ccc2c3c([nH]c2c1)CCN(c1ccc2nc(N4CCOCC4)sc2c1)C3 [Example 43]
2. CN(C)c1nc2cc(N3CCc4c(c5ccc(F)cc5n4C)C3)ccc2o1 [Example 42]
3. Fc1ccc2c3c([nH]c2c1)CCN(c1ccc2oc(N4CCOCC4)nc2c1)C3 [Example 45]
4. CN(C)c1nc2cc(N3CCc4c(c5cc(F)ccc5n4C)C3)ccc2o1 [Example 29]
5. CN(C)c1nc2ccc(N3CCc4[nH]c5ccc(F)cc5c4C3)cc2o1 [Example 13]
6. CN(C)c1nc2cc(N3CCc4[nH]c5cc(F)ccc5c4C3)ccc2o1 [Example 56]
7. Fc1cccc2[nH]c3c(c12)CN(c1ccc2sc(N4CCOCC4)nc2c1)CC3 [Example 52]
8. CN(C)c1nc2cc(N3CCc4[nH]c5cc(F)ccc5c4C3)ccc2s1 [Example 69]

OUT:
1. > 5.00
2. 4.60 to 5.00
3. > 5.00
4. > 5.00
5. 4.60 to 5.00
6. > 5.00
7. > 5.00
8. > 5.00

* * *

Can you tell me EC50 for the items I'm about to list?
target: recombinant full-length (fl)Tau (human Tau 2N4R) aggregates (Homo sapiens); construct: 35 μM of recombinant full-length (fl)Tau in PBS were aggregated; experiment: Full-length Tau (flTau) disaggregation assay by Thioflavin T (ThT); conditions: 2 μM flTau aggregates, 30 minutes at RT, ThT fluorescence

Recorded results for 2 compounds are shown here.
>  <Compound>
Fc1ccc2oc3c(c2c1)CN(c1ccc2oc(N4CCOCC4)nc2c1)CC3 [Example 49]

>  <Meas Value>
< 10 µM

$$$$
>  <Compound>
COc1ccc2[nH]c3c(c2c1)CN(c1ccc2nc(N4CCOCC4)sc2c1)CC3 [Example 19]

>  <Meas Value>
< 10 µM

$$$$

IN: Please report the measured EC50 for CN(C)c1nc2cc(N3CCc4c(c5cc(F)ccc5n4C)C3)ccc2s1 [Example 28]
OUT: < 10 µM

FYI, the data here is from patent US10633383B2.
